# SYSTEM UNDER TEST: T1, Human Siglec-9 (human, UniProt Q9Y336 18-463)
# T1 construct: On transfected CHO cells; also on YTS and KHYG-1 transfectants, primary NK cells and moDC; also called huSiglec-9; CD329
# T1 sequence (Q9Y336 18-463): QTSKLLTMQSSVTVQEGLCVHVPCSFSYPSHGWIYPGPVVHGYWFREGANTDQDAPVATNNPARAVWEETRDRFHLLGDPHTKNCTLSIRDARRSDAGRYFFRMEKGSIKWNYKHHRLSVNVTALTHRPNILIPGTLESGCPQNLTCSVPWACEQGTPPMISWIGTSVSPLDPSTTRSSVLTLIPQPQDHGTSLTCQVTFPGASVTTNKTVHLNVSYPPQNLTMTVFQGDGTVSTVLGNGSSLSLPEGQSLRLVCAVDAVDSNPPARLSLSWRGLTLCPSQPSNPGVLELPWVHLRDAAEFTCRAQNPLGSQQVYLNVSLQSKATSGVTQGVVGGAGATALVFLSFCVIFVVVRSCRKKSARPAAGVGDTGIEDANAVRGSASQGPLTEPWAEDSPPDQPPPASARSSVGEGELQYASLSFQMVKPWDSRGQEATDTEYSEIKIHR
# EXPERIMENTAL PROTOCOL: flow cytometry, CHO transfectants

BINDER	EC50, µg/mL
mAb1 (antibody, human IgG1, V domains shown) VH: DVQLQESGPGLVKPSQSLSLTCTVTGYSITGGFAWNWIRQFPGNTLEWMGYIGYGGSTSYNPSLNSRISITRDTSKNHFFLQFNSVTTDDSATYYCARGDYLFAYWGQGTLVTVSA VL: DIVMTQSHKFMSTSVGDRVSITCKASQDVNTAVAWYQQKPGQSPKLLIYSASYRYTGVPDRFTGSGSGTDFTFTISSVQAEDLAVYYCQQHYSTPRTFGGGTKLEIK	0.11
mAb6 (antibody, human IgG1, V domains shown) VH: EIQLQQSGPELEKPGASVKISCKASGYSFSDYNMNWVKQSNGKSLEWIGNIDPYYGATSYNQRFKGKATLTVDKSSSTAYMQLKSLTSEDSAVYYCARGDSLFAYWGQGTLVTVSA VL: DIVMTQSQEFMSTSLGDRVSVTCKASQNVGTNVAWYQQKPGQSPKALLYSASSRYSGVPDRFTGSGSGTDFTLTINNMQSEDLAEYFCQQYITYPYTFGGGTKLEIK	0.31
mAb5 (antibody, human IgG1, V domains shown) VH: EIQLQQSGPELEKPGASVKISCKASGYSFSDYNMNWVKQSNGKSLEWIGNIDPYYGATSYNQRFKGKATLTVDKSSSTAYMQLKSLTSEDSAVYYCARGDSLFAYWGHGTLVTVSA VL: DIVMTQSQEFMSTSLGDRVSVTCKASQNVGTNVAWYQQKPGQSPKALLYSASSRYSGVPDRFTGSGSGTDFTLTISNVQSEDLAEYFCQQYITYPYTFGGGTKLEIK	0.26
